# tgt: program cell death protein 1 (PD-1) (UniProt Q15116 25-167, limits assumed)
# Sequence (Q15116 25-167 limits assumed): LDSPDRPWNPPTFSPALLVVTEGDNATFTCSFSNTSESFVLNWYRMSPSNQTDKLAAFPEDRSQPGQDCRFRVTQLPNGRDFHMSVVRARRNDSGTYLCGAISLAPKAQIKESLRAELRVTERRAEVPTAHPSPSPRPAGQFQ
# experiment.summary: SPR (Carterra LSA), IgG, monovalent affinity
Kd under 60 nM gets Yes, anything at or over 60 nM gets No.

| binder | label.class |
| --- | --- |
| PD1-24 (antibody, V domains shown) VH: EVQLVESGGGLVQPGRSLRLSCAASGFTFDDYAMHWVRQAPGKDLEWVSGISWNSGSMGYAASVKGRFTISRDNAKNSLYLQMNSLRAEDTALYYCVREKGPGLTGSTADYYGLDAWGQGTMVTVSS | No |
| PD1-11 (antibody, V domains shown, IgG in the assay) VH: QVQLVQSGAEVKKPGASVKVSCKASGYTFSNYGFSWVRQAPGQGLEWMGWISPYSGNTKYAQKLQGRVTMTTDTSTSTAYMELRSLRSDDTAVYYCARDADYSIGSGYWGQGTLVTVSS VL: SYELMQPPSVSVSPGQTARITCSGDALPRQYAHWYQQKPGQAPVLVIYKDNVRPSGIPERFSGSSSGTTVTLTISGVQAEDEADYYCQSADTSTIYRVFGGGTKLTVL | Yes |
| PD1-43 (antibody, V domains shown, IgG in the assay) VH: QVQLVQSGAEVKKPGASVKVSCKASGYTFSNYGISWVRQAPGQGLEWMGWISAYSGNTKYAQKLQGRVTMTTDTSTSTAYMELRSLRSDDTAVYYCARDADYASGSGYWGQGTLVTVSS VL: SYELMQPPSVSVSPGQTARITCSGDALPRQYAHWYQQKPGQAPVLVIYKDNERPSGIPERFSGSSSGTTVTLTISGVQAEDEADYYCQSADTSTIYRVFGGGTKLTVL | Yes |
| PD1-42 (antibody, V domains shown, IgG in the assay) VH: QVQLVQSGAEVKKPGASVKVSCKASGYTFNNFGISWVRQAPGQGLEWMGWISAYNGNTDYAQKLQGRVTMTTDTSTSTAYMELRSLRSDDTAVYYCARDMDYSSGSGYWGQGTLVTVSS VL: SYELMQPPSVSVSPGQTARITCSGDALSNQYAYWYQQKPGQAPVLVIYKDTETPSGIPERFSGSSSGTTVTLTISGVQAEDEADYYCQSADNSITYRVFGGGTKLTVL | Yes |
| PD1-36 (antibody, V domains shown, IgG in the assay) VH: QVQLVQSGAEVKKPGASVKVSCKASGYTFSSYGVSWVRQAPGQGLEWMGWISAYSGSTNYAQKLQGRVTMTTDTSTSTAYMELRSLRSDDTAVYYCARDAVYSSGSGYWGQGTLVTVSS VL: SYELMQPPSVSVSPGQTARITCSGDALPNQYAHWYQQKPGQAPVLVIYKDTQRPSGIPERFSGSSSGTTVTLTISGVQAEDEADYYCQSADNSITYRVFGGGTKLTVL | No |
| PD1-49 (antibody, V domains shown) VH: EVQLVESGGGLVQPGRSLRLSCAASGFTFDDYAFHWVRQAPGKDLEWVSGISWNSGSQGYADSVKGRFTISRDNAKNSLYLQMNSLRAEDTALYYCVREKGPGLTGSTADYYGLDAWGQGTMVTVSS | No |
| PD1-48 (antibody, V domains shown) VH: EVQLVESGGGLVQPGRSLRLSCAASGFTFDDYALHWVRQAPGKDLEWVSGISWNSGSQGYADSVKGRFTISRDNAKNSLYLQMNSLRAEDTALYYCVREKGPGLTGSTADYYGLDAWGQGTMVTVSS | No |
| PD1-44 (antibody, V domains shown) VH: EVQLVESGGGLVQPGRSLRLSCAASGFTFDDYALHWVRQAPGKDLEWVSGISWNSGSYGYADSVKGRFTISRDNAKNSLYLQMNSLRAEDTALYYCVREKGPGLTGSTADYYGLDAWGQGTMVTVSS | No |
| PD1-21 (antibody, V domains shown) VH: EVQLVESGGGLVQPGRSLRLSCAASGFTFDDYAMHWVRQAPGKDLEWVSGISWNGGSMGYAASVKGRFTISRDNAKNSLYLQMNSLRAEDTALYYCVREKGPGLTGSTADYYGLDVWGQGTMVTVSS | No |
| PD1-45 (antibody, V domains shown) VH: EVQLVESGGGLVQPGRSLRLSCAASGFTFDDYALHWVRQAPGKDLEWVSGISWNAGSQGYADSVKGRFTISRDNAKNSLYLQMNSLRAEDTALYYCVREKGPGLTGSTADYYGLDAWGQGTMVTVSS | No |
| PD1-30 (antibody, V domains shown, IgG in the assay) VH: QVQLVQSGAEVKKPGASVKVSCKASGYTFNNYGVSWVRQAPGQGLEWMGWVSAYSGNTNYAQKLQGRVTMTTDTSTSTAYMELRSLRSDDTAVYYCARDADYASGSGYWGQGTLVTVSS VL: SYELMQPPSVSVSPGQTARITCSGDALSNQYTYWYQQKPGQAPVLVIYKDKKRPSGIPERFSGSSSGTTVTLTISGVQAEDEADYYCQSADNSITYRVFGGGTKLTVL | No |
